biological target: DNA-dependent protein kinase catalytic subunit (Homo sapiens, UniProt P78527)
Sequence (P78527 whole entry): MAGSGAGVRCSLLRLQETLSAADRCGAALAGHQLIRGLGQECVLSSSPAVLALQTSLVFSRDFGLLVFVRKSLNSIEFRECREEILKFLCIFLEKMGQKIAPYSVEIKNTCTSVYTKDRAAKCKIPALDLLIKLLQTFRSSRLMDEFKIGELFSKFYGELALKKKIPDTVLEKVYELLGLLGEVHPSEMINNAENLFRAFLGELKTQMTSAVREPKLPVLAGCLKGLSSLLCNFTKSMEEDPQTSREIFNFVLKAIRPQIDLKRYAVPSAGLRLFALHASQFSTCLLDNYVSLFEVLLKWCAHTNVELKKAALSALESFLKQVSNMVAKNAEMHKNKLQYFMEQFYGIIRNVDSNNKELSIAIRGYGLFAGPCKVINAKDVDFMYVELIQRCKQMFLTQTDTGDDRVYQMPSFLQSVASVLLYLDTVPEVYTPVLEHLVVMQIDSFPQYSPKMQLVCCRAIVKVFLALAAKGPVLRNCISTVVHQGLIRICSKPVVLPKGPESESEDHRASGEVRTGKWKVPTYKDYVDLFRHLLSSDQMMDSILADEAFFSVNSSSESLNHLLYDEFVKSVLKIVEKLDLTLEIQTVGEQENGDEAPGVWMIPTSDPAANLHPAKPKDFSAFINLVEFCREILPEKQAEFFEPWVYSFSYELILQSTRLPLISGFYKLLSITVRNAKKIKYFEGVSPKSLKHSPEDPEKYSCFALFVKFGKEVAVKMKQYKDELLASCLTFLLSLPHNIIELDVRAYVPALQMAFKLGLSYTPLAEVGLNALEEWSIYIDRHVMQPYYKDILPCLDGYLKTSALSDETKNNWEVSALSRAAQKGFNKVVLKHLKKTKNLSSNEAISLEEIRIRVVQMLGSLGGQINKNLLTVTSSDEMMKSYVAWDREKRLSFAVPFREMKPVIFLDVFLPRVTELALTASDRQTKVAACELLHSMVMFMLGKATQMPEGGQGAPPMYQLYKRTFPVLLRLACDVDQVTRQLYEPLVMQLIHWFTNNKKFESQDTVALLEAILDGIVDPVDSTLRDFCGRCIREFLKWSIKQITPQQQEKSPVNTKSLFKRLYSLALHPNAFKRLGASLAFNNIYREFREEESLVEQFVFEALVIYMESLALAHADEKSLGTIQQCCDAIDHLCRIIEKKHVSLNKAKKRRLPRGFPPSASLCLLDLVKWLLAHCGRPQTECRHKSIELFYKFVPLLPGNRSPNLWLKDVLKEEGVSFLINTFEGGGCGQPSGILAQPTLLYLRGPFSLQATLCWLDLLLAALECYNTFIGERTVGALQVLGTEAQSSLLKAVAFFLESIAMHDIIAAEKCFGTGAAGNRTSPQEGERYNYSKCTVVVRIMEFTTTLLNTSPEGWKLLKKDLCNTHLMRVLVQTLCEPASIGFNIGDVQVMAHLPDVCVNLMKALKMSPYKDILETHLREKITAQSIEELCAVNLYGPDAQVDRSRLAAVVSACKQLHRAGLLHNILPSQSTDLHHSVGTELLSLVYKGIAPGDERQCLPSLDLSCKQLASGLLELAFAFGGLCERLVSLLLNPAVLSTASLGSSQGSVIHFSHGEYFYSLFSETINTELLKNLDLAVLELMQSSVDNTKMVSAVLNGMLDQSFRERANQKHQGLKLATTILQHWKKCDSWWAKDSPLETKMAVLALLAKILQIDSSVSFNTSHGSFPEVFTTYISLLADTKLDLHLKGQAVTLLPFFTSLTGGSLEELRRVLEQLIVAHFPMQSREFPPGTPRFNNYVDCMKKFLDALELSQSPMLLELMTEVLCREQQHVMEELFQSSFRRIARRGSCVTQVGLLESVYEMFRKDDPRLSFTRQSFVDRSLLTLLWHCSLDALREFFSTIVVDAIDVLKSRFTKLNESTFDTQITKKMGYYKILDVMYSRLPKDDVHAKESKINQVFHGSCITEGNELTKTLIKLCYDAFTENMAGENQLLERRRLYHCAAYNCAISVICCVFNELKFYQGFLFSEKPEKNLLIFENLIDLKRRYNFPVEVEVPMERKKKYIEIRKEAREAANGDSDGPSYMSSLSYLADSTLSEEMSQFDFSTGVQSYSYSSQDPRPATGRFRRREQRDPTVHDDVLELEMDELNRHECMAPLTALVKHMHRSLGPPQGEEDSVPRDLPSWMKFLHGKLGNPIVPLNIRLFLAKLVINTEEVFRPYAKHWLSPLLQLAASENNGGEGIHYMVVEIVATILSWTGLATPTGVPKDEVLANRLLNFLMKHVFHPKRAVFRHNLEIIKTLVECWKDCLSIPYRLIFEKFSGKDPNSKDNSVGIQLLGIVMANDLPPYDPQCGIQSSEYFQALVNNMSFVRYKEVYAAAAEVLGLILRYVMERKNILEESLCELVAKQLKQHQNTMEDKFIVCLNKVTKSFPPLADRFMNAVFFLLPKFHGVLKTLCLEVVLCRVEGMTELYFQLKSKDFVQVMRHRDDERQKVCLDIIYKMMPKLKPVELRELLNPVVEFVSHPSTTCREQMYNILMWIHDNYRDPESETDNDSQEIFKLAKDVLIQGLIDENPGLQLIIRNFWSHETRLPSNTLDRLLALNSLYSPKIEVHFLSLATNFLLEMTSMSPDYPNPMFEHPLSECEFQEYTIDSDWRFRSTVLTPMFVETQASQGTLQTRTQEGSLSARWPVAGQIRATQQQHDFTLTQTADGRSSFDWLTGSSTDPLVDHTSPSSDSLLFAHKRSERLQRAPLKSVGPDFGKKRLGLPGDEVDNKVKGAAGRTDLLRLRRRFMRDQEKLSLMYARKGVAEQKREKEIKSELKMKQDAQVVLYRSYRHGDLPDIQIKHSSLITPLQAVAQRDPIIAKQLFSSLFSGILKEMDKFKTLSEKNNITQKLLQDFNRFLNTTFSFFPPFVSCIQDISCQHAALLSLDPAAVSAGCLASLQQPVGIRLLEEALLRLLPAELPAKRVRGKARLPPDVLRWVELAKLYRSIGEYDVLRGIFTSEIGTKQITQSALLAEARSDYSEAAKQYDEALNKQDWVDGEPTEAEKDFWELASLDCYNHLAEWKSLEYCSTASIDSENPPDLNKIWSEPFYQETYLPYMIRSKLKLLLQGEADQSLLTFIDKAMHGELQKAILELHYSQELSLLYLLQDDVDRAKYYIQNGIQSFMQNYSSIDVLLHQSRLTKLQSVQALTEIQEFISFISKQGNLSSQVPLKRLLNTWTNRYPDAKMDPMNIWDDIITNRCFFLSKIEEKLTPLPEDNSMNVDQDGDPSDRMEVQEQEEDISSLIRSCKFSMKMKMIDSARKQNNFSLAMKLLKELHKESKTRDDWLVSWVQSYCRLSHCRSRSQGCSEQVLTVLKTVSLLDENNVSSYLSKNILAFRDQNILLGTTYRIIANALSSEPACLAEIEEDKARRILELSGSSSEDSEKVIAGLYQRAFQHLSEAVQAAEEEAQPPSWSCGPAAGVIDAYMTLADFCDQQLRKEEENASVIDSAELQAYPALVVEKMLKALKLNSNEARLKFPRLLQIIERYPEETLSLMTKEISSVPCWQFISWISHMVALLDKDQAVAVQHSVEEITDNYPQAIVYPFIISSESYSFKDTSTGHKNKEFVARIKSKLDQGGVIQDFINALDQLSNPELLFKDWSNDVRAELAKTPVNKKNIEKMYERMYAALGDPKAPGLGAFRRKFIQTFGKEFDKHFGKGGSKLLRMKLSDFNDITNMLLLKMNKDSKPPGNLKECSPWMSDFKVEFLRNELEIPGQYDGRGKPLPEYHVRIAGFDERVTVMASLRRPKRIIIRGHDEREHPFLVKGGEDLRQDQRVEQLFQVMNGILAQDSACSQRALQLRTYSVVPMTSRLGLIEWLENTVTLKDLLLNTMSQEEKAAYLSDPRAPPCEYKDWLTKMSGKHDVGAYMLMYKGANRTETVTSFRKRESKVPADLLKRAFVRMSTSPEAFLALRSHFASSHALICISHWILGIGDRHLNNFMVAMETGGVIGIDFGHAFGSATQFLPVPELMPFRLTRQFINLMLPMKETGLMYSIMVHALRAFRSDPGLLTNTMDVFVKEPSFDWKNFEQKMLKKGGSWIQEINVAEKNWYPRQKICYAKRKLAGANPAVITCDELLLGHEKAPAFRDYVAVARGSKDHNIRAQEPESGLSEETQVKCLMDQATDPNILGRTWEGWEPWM
Measured Parameter: pIC50
Interpret pIC50 as the negative base-10 log of the concentration measured in mol/L.

Answer with pIC50 of "O=S(=O)(Nc1cc(-c2ccc3ncc(N4CCOCC4)nc3c2)cnc1Cl)c1ccc(F)cc1" measured for DNA-dependent protein kinase catalytic subunit (Homo sapiens, UniProt P78527).
8.47

###

Recorded pIC50 by entry
target: Phosphatidylinositol 4,5-bisphosphate 3-kinase catalytic subunit delta isoform (Homo sapiens)
Sequence (O00329 whole entry, canonical isoform): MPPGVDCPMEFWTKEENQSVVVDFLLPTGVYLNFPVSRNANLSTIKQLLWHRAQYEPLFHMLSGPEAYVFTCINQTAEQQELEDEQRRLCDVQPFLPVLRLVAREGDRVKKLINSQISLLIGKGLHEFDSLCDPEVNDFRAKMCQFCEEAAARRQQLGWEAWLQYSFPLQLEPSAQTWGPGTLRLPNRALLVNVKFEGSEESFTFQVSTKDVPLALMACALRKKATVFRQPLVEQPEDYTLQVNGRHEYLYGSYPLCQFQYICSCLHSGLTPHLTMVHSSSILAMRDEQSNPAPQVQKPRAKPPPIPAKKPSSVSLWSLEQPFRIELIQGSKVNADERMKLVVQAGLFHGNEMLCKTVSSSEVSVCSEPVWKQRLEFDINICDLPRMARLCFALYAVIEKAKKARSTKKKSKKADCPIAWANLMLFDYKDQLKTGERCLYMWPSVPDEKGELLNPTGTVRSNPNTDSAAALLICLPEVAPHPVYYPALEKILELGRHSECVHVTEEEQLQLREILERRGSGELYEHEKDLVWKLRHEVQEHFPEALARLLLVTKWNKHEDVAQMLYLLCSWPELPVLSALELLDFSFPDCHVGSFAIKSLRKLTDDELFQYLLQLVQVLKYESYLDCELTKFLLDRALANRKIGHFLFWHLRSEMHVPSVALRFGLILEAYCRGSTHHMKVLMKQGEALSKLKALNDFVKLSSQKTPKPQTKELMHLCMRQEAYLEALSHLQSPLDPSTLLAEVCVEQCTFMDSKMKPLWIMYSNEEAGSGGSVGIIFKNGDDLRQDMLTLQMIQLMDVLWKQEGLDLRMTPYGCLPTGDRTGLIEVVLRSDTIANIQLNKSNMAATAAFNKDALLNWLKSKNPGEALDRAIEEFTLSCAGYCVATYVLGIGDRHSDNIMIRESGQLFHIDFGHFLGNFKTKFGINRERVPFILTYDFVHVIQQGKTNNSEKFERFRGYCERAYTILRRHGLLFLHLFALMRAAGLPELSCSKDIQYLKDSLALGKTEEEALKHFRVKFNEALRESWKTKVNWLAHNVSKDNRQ
Interpret pIC50 as the negative base-10 log of the concentration measured in mol/L.

Compound Structure: O=S(=O)(Nc1cc(-c2ccc3nccc(-c4cccnc4)c3c2)cnc1Cl)c1ccc(F)cc1
Measured Parameter: pIC50
Reported Result: 8.23

Give pIC50 for the following compound: "O=S(=O)(Nc1cc(-c2ccc3ncc(N4CCOCC4)nc3c2)cnc1Cl)c1ccc(F)cc1"
8.36

Give pIC50 for the following compound: "CC(C)N1CCN(c2cnc3ccc(-c4cnc(Cl)c(NS(=O)(=O)c5ccc(F)cc5)c4)cc3n2)CC1"
8.25

Give pIC50 for the following compound: "O=S(=O)(Nc1cc(-c2ccc3ncc(NCCN4CCOCC4)nc3c2)cnc1Cl)c1ccc(F)cc1"
8.22

Give pIC50 for the following compound: "O=S(=O)(Nc1cc(-c2ccc3nccc(N4CCN(Cc5ccncc5)CC4)c3c2)cnc1Cl)c1ccc(F)cc1"
8.22

Give pIC50 for the following compound: "O=S(=O)(Nc1cc(-c2ccc3nccc(-c4ccncc4)c3c2)cnc1Cl)c1ccc(F)cc1"
8.22
